- assayed.system: T1, human bow-Ang-2 tetrameric construct (hBA2) (human)
- T1 construct: also called human BA2; hBA2-hIgG1
- T1 sequence (chain, as listed by the source limits assumed): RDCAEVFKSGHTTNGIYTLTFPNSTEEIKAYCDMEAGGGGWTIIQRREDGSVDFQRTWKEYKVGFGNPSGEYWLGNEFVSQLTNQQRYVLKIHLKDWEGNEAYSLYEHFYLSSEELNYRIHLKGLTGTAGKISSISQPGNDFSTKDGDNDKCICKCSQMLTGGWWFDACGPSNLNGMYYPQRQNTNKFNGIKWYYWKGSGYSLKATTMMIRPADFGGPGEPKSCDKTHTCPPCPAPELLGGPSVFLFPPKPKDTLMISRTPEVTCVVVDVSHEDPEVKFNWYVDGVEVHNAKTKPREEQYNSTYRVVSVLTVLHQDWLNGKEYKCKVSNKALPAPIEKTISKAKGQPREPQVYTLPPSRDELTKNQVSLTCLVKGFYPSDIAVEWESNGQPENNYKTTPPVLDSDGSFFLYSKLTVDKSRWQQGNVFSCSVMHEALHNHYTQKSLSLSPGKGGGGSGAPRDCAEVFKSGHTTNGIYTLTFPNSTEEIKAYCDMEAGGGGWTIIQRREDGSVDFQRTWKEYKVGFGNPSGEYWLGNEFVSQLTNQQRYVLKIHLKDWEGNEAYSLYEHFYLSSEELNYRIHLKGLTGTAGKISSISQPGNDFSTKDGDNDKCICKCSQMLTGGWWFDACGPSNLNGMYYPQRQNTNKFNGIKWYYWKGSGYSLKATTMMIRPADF
- assay.details: SPR, captured Ab
pKd: −log10 of the molar value.

| binder | pKd |
| --- | --- |
| H1H696P (antibody, V domains shown) VH: QVQLVESGGGLVKPGGSLRLSCAASGFTFSDYYMSWIRQAPGKGLEWVSYISYTGRTIYYADSVKGRFTISRDNAKNSLYLQMNSLRAEDTAVYYCARDTDYGDFFDYWGQGTLVTVSS VL: DIQMTQSPSSLSASVGDRVTITCRASQGISNYLAWFQQKPGKAPKSLIYAASSLQSGVPSKFSGSGSGTDFTLTISSLQPEDFATYYCQQYNSYPLTFGGGTKVEIK | 9.95 |
| H1H690P (antibody, V domains shown) VH: EVQLVESGGGLVQPGESLRLSCAASGFTFSSYAMSWVRQGPGKGLEWVSSITGSGDTTYYADSVKGRFTISRDNSKNTLYLHMNSLRAEDTAVYYCAKDFLDYSTYLAFDLWGQGTMVTVSS VL: EIVLTQSPATLSLSPGERATLSCRASQSVSSYLTWYQQKPGQAPRLLSYDASNRATGIPARFSGSGSGTDFTLTISSLEPEDFAVYYCQQRSNWPLTFGGGTKVEIK | 10.75 |
